Data provenance is patent US11974988B2.

system: activity-regulated Gln/MeAIB transport (SNAT activity) in hippocampal neurons; assay: Activity-regulated (spontaneous, 4-AP- or K+-stimulated) [14C]-MeAIB transport in primary hippocampal neurons; type: cell-based, rat; conditions: spontaneous and 4-AP stimulated transport
property: potency to inhibit activity-regulated MeAIB transport relative to a comparator, in words

INSERT INTO assay_data (compound, experimentalvalue) VALUES
  ('Nc1nc(-c2cccc3ccccc23)c(Br)s1 [SKA-219]', 'as potent as riluzole'),
  ('Nc1nc(-c2ccc3ccccc3c2)c(Br)s1 [SKA-220]', 'as potent as riluzole');

###

Reported values of pIC50 for individual entries
system: activity-regulated Gln/MeAIB transport (SNAT activity) in hippocampal neurons; test: Activity-regulated (spontaneous, 4-AP- or K+-stimulated) [14C]-MeAIB transport in primary hippocampal neurons; assay type: cell-based, rat; details: Rattus norvegicus, Hippocampal neuron; spontaneous [14C]-MeAIB uptake, DIV 19; n in brackets; read-out: SNAT Activity IC50, Spont
pIC50: −log10 of the molar value.
property: pIC50

INSERT INTO assay_data (compound, experimentalvalue) VALUES
  ('Cc1ccc(-c2nc(N)sc2Br)c2ccccc12', 6.00),
  ('Nc1nc(-c2cccc3ccccc23)c(Cl)s1 [drawing 70]', 5.92),
  ('Nc1nc(-c2cccc3ccccc23)c(Br)s1 [drawing 65]', 5.74),
  ('Cc1ccc(-c2csc(N)n2)c2ccccc12 [drawing 63]', 5.59),
  ('Cc1ccc(-c2nc(N)sc2Cl)c2ccccc12', 5.85),
  ('Nc1nc(-c2ccc3ccccc3c2)c(Br)s1 [drawing 66]', 5.36),
  ('Nc1nc(-c2ccc(OC(F)(F)F)cc2)c(Cl)s1', 5.34),
  ('Nc1nc(-c2ccc3ccccc3c2)c(Cl)s1 [drawing 71]', 5.21),
  ('Nc1nc(-c2ccc3ccccc3c2)c(F)s1', 4.88);
